target: C-X-C chemokine receptor type 6 (Homo sapiens) (UniProt O00574)
Sequence (O00574 whole entry, looked up): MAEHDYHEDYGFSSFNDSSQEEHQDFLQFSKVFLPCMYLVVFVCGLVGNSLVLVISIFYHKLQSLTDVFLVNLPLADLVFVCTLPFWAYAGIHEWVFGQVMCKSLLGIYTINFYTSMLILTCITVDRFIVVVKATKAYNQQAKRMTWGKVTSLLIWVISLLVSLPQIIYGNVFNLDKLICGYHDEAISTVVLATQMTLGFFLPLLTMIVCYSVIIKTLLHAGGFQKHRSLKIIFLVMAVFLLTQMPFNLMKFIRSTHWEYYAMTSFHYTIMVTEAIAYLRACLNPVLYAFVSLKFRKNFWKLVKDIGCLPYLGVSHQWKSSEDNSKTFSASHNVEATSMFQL
procedure-summary: potency against CXCR6 with APJ panel – cell-based, beta-arrestin, DiscoveRx, uHTS hits, dose response (AID 624129)
condition-description: CXCR6 beta-arrestin (DiscoveRx) antagonist cell assay, CXCR6, dose range 1
Calls of active or inactive are those of the source. No rule for the calls is given here.
Possible outcomes: TRUE = active, FALSE = inactive

> print(dat)
                                    molecule  class
 1     Cn1nc([N+](=O)[O-])nc1Sc1cccc2cccnc12  FALSE
 2  COc1ccc(OC)c(NC(=O)c2nc(S(=O)(=O)Cc3ccccc3)ncc2Cl)c1   TRUE
 3               Cc1cccc(CSc2cccc3cccnc23)c1   TRUE
 4  COC(CNC(=O)c1cc(C(=O)c2c(-c3c(Cl)cccc3Cl)noc2C)c[nH]1)OC  FALSE
 5  COc1ccc(-n2c(O)c(/C=N/Nc3nc(C)cc(C)n3)c3ccccc3c2=O)cc1OC  FALSE
 6  C/C(=N\NC(=O)Cn1c(-c2ccccn2)nc2ccccc21)c1ccccc1  FALSE
 7  Cc1cccc(C(=O)Nc2ccc(C(=O)/C=C/c3cccnc3)cc2)c1   TRUE
 8  Cc1c(Nc2cc(Cl)c3nonc3c2[N+](=O)[O-])c(=O)n(-c2ccccc2)n1C   TRUE
 9  Cc1ccc(S(=O)(=O)c2ccc([N+](=O)[O-])o2)cc1  FALSE
10            Cc1ccsc1/C=C/c1ccc2cccc(O)c2n1   TRUE
11  O=C(CSc1nc(-c2ccco2)cc(C(F)(F)F)n1)NCCCn1ccnc1  FALSE
12          COc1cccc(-n2nc(C#N)c(Cl)cc2=O)c1  FALSE
13                               On1ccccc1=S  FALSE
14  Cc1cc(S(=O)(=O)c2ccc(Cl)cc2)nc(S(=O)(=O)c2ccc(Cl)cc2)c1C#N  FALSE
15          CC(=O)Nc1ccc(NCC(=O)c2ccccc2)cc1  FALSE
16  O=C(Cn1sc2ccccc2c1=O)NC12CC3CC(CC(C3)C1)C2   TRUE
17  CCC1CCCCN1S(=O)(=O)c1ccc(NC(=O)c2nc(S(C)(=O)=O)ncc2Cl)cc1 (stereo not given)   TRUE
18  CC(C)(C)C(=O)NC(=S)NNC(=O)c1sc2ccccc2c1Cl  FALSE
19  Cc1nc2c(-c3ccc(Cl)cc3)c(C)[nH]n2c(=O)c1Cc1ccccc1  FALSE
20  O=C(Nc1cccc(C(F)(F)F)c1)Oc1ccc(Cl)c2cccnc12   TRUE
21  Cn1c(O)c(C2=NNC(c3ccc(Cl)cc3)C2)c(=O)n(C)c1=O (stereo not given)  FALSE
22       O=C(CSc1cccc2cccnc12)N/N=C/c1cccnc1   TRUE
23  C=C1C(=O)C23CCC4C(C)(C(=O)OC)CCCC4(C)C2CCC1(O)C3 (stereo not given)   TRUE
24  CC(=O)OCCNc1cc(SCc2ccco2)c2nonc2c1[N+](=O)[O-]  FALSE
25                  CCOC(=O)CSc1cccc2cccnc12   TRUE
26  Cc1ccc(C(C[N+](=O)[O-])Sc2ccc(N)cc2)cc1 (stereo not given)  FALSE
27  O=C(Nc1nnc(-c2cccs2)o1)c1cccc(C(F)(F)F)c1  FALSE
28           O=[N+]([O-])/C=C/c1c(Cl)cccc1Cl  FALSE
29         O=C1C=CC(=O)N1c1cccc(-c2ccccc2)c1   TRUE
30  COC(=O)[C@@H]1[C@@H](C#N)C2(c3ccccc3-c3ccccc32)N(c2ccc(Cl)cc2)N1C#N  FALSE
31  CCCC1CCC(=NNC(=S)NCCc2ccccc2)CC1 (stereo not given)  FALSE
32             Cc1ccc(C(=O)CNc2ccc(F)cc2)cc1   TRUE
33     O=C1C(=C(c2ccccc2)N2CCOCC2)Cc2ccccc21   TRUE
34       Oc1cccc2ccc(/C=C/c3c(F)cccc3Cl)nc12   TRUE
35         N=C1S/C(=C\c2ccco2)C(=O)N1c1nccs1   TRUE
36            COc1ccc(CCN2C(=O)C=CC2=O)cc1OC   TRUE
37  Cc1[nH][nH]c(=O)c1C(c1c(C)[nH][nH]c1=O)c1cn(Cc2ccc(F)cc2)c2ccccc12  FALSE
38  COc1ccc(C2CC(c3c(O)n(CCc4ccccc4)c(=O)[nH]c3=O)=NN2)cc1OC (stereo not given)  FALSE
39       Cc1ccc(S(=O)(=O)Nc2cccc3cccnc23)cc1   TRUE
40  CCN(CC)CC(C)(C)C(=O)/C=C/c1ccc(/C=C/C(=O)C(C)(C)CN(CC)CC)cc1   TRUE
41     Cc1ccc(C(=O)/C=C/C(=O)c2ccc(C)cc2)cc1  FALSE
42  O=C1C(Cc2ccccc2)Nc2ncnc(N3CCN(c4ccccc4)CC3)c2N1Cc1ccc(Br)cc1 (stereo not given)   TRUE
43  O=C(/C=C/c1cccc([N+](=O)[O-])c1)c1ccc([N+](=O)[O-])o1  FALSE
44  N#CC(C#N)=C1C=CC=CN1/C(=C\c1ccco1)C(=O)c1ccc(Br)cc1  FALSE
45  COc1cc(/C=C/c2ccc3c(Br)cc(Br)c(O)c3n2)ccc1O  FALSE
